The reported numbers originate from ChEMBL document CHEMBL1121774.

Protein target, amino acids: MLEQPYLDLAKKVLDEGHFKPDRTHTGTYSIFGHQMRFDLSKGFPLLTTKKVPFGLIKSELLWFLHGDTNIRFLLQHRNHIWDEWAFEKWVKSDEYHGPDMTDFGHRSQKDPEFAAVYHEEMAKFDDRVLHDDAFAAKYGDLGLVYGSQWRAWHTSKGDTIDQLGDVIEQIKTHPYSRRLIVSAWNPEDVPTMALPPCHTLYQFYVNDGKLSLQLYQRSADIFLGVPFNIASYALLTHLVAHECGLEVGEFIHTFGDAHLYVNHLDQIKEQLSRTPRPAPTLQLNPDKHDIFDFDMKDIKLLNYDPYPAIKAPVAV
Metric: pKi
Just the number, please; pKi means minus log10 of the concentration in mol/L.

Record summary for "C#Cc1cn([C@H]2C[C@H](O)[C@@H](COP(=O)(O)O)O2)c(=O)[nH]c1=O" : reported pKi = 5.57
